- Tested on: Trypanosoma cruzi
- method: GSK_TCAKS: pIC50 Trypanosoma cruzi viability assay using beta-GAL activity. This assay was run at single shot at 5uM compound concentration per well. The biological reagents consisted of NIH-3T3 host cells and trypomastigotes parasitic cells; both cell types were set to a 3.3 * 10^5 cells/mL dilution in assay DMEM by means of a CASY cell counter device using a 60um capillary. 6 uL of the mixture were dispensed per well (about 1 * 10^3 host-cells and 1 * 10^3 parasites) with a Multidrop Combi dispenser. […] In all wells, the percentage of DMSO never exceeded 0.5%. Plates incubated for four days at 37C, 5% CO2. The substrate used for the assay fluorescence intensity (FLINT) readout was resorufin-beta-D-galactopiranoside (Sigma-Aldrich) at 5uM per well. It was diluted in PBS supplemented with the soft detergent Igepal (Fluka).
- Format: functional, organism-based, Mus musculus
- measurementSetup: Tulahuen, NIH3T3
pIC50: −log10 of the molar value.
attributeMeasured: pIC50

Respond only with pIC50 recorded for O=c1cc(NCCCNCc2c[nH]c3ccc(Br)cc23)[nH]c2ccccc12 < 4.30

Identify the reported pIC50 for the following entry. CNC(=O)C1Cc2ccccc2N1C(=O)Cc1ccc(OC)cc1 (stereo not given) < 4.30

Report pIC50 for COc1cccc(NS(=O)(=O)c2ccc3ncc(C(=O)NCCC(C)C)c(O)c3c2)c1 < 4.30

Could you please provide reported pIC50 for O=C(c1ccc(O)c(Cl)c1)N1CCN(c2cnccn2)CC1 ? Thanks! < 4.30

Give the reported value of pIC50 for this record: CCC(=O)Nc1ccccc1C(=O)Nc1ccccn1 < 4.30
